# testedTarget: tankyrase 2 (TNKS 2) (Homo sapiens, UniProt Q9H2K2)
# Construct: 613-1, 116aa; made in house; host or cells: cell-free protein synthesis system
# Sequence (Q9H2K2 613-1166): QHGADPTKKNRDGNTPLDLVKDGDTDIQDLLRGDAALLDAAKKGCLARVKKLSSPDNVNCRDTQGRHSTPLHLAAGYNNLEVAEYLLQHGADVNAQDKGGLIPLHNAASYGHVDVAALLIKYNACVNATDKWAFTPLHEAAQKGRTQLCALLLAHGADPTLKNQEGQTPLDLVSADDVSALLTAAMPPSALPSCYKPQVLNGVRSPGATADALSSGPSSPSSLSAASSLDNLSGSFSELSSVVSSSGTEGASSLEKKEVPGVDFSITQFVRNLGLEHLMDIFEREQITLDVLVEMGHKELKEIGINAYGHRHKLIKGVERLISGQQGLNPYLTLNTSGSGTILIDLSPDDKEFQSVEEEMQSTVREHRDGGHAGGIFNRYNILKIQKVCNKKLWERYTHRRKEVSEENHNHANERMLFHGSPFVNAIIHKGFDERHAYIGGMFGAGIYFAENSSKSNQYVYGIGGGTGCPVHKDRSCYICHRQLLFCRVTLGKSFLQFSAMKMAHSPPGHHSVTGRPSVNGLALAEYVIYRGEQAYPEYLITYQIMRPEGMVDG
# procedureText: Tankyrase inhibitory activity test (ELISA, self-polyADP ribosylation), tankyrase 2
# Assay type: biochemical
# runConditions: tankyrase 2, ELISA, self-polyADP ribosylation; read-out: TNKS2 inhibitory activity (IC50 class)
What IC50 was measured for each of the following?

Req: Give me measured IC50, please, for this molecule: O=c1[nH]c(N2CCC3(CC2)CN(Cc2ccncc2)c2ccccc23)nc2c1CCCC2
Resp: 20 to 200 nM

Req: Give me measured IC50, please, for this molecule: CN1CCCc2c1nc(N1CCC3(CC1)C(=O)N(CCO)c1cc(F)cc(F)c13)[nH]c2=O
Resp: < 20 nM

Req: Give me measured IC50, please, for this molecule: CN1CCCc2c1nc(N1CCC3(CC1)C(=O)Nc1cccc(F)c13)[nH]c2=O
Resp: < 20 nM

Req: Give me measured IC50, please, for this molecule: O=c1[nH]c(N2CCC3(CC2)CN(Cc2cccnc2)c2cccc(Cl)c23)nc2c1CCCC2
Resp: < 20 nM

---

# testedTarget: tankyrase 1 (TNKS 1) (Homo sapiens)
# Construct: 1,024-1,327aa; made in house; host or cells: cell-free protein synthesis system
# Sequence (O95271 1024-1327): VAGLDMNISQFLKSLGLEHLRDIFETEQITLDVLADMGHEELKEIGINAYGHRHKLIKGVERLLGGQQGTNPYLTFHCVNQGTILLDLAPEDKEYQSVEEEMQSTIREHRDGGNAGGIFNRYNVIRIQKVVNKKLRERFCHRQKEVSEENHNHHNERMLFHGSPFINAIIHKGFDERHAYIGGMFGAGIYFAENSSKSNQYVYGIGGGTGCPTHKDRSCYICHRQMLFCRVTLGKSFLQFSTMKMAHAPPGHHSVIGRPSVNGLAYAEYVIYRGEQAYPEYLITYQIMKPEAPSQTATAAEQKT
# procedureText: Tankyrase inhibitory activity test (ELISA, self-polyADP ribosylation), tankyrase 1
# Format: biochemical
# runConditions: ELISA, self-polyADP ribosylation; class symbols; read-out: TNKS1 (inhibitory activity against tankyrase 1, IC50 value)
pIC50: −log10 of the molar value.
metric: pIC50

Req: Answer briefly: pIC50 recorded on tankyrase 1 (TNKS 1) (Homo sapiens) for CN(C)c1ccc(-c2cc(F)c3c(c2)C(=O)OC32CCN(c3nc4c(c(=O)[nH]3)CCCN4C)CC2)cc1 [Example 449]
Resp: 6.70 to 7.70

Req: Answer briefly: pIC50 recorded on tankyrase 1 (TNKS 1) (Homo sapiens) for CN(C)CCOc1cc(F)c2c(c1)N(CC(F)(F)F)C(=O)C21CCN(c2nc3c(c(=O)[nH]2)CCCN3C)CC1 [Example 400]
Resp: 6.70 to 7.70

Req: Answer briefly: pIC50 recorded on tankyrase 1 (TNKS 1) (Homo sapiens) for CN1CCCc2c1nc(N1CCC3(CC1)C(=O)N(C)c1cc(N4CCN(C5COC5)CC4)cc(F)c13)[nH]c2=O [Example 398]
Resp: > 7.70

Req: Answer briefly: pIC50 recorded on tankyrase 1 (TNKS 1) (Homo sapiens) for COc1ccc(F)c2c1N(CC(C)(C)O)CC21CCN(c2nc3c(c(=O)[nH]2)CCCN3)CC1 [Example 473]
Resp: 6.70 to 7.70

Req: Answer briefly: pIC50 recorded on tankyrase 1 (TNKS 1) (Homo sapiens) for CN1CCCc2c1nc(N1CCC3(CC1)C(=O)N(C)c1cc(OCCNS(C)(=O)=O)cc(F)c13)[nH]c2=O [Example 432]
Resp: 6.70 to 7.70

Req: Answer briefly: pIC50 recorded on tankyrase 1 (TNKS 1) (Homo sapiens) for CN1CCCc2c1nc(N1CCC3(CC1)C(=O)N(C)c1cc(OCCN4CCCC4CO)cc(F)c13)[nH]c2=O (stereo not shown) [Example 394]
Resp: > 7.70

Req: Answer briefly: pIC50 recorded on tankyrase 1 (TNKS 1) (Homo sapiens) for CN1CCCc2c1nc(N1CCC3(CC1)C(=O)N(C)c1cc(N4CC5CCC(C4)N5)cc(F)c13)[nH]c2=O [Example 391]
Resp: > 7.70

---

What IC50 was measured for each of the following?
# testedTarget: tankyrase 1 (TNKS 1) (Homo sapiens)
# Construct: 1,024-1,327aa; made in house; host or cells: cell-free protein synthesis system
# procedureText: Tankyrase inhibitory activity test (ELISA, self-polyADP ribosylation), tankyrase 1
# Assay type: biochemical
# runConditions: ELISA, self-polyADP ribosylation; class symbols; read-out: TNKS1 (inhibitory activity against tankyrase 1, IC50 value)

Req: Give me measured IC50, please, for this compound: CN1CCCc2c1nc(N1CCC3(CC1)C(=O)N(C)c1cc(N4CCC(S(C)(=O)=O)CC4)cc(F)c13)[nH]c2=O
Resp: < 20 nM

Req: Give me measured IC50, please, for this compound: CN1CCCc2c1nc(N1CCC3(CC1)C(=O)N(C)c1cc(N4CCN(S(=O)(=O)N(C)C)CC4)cc(F)c13)[nH]c2=O
Resp: 20 to 200 nM

Req: Give me measured IC50, please, for this compound: COCCN1C(=O)C2(CCN(c3nc4c(c(=O)[nH]3)CCCN4C)CC2)c2c(F)cc(OCc3nnn[nH]3)cc21
Resp: < 20 nM

Req: Give me measured IC50, please, for this compound: CN1CCCc2c1nc(N1CCC3(CC1)C(=O)N(C)c1c(OCCNC(C)(C)C)ccc(F)c13)[nH]c2=O
Resp: 20 to 200 nM

Req: Give me measured IC50, please, for this compound: CN1CCCc2c1nc(N1CCC3(CC1)C(=O)N(CC(F)(F)F)c1cc(OCc4nnn[nH]4)cc(F)c13)[nH]c2=O
Resp: < 20 nM

Req: Give me measured IC50, please, for this compound: C[C@@H]1CN(c2cc(F)c3c(c2)N(CC(F)(F)F)C(=O)C32CCN(c3nc4c(c(=O)[nH]3)CCCN4C)CC2)C[C@H](C)N1
Resp: < 20 nM

Req: Give me measured IC50, please, for this compound: CC(=O)NS(=O)(=O)COc1cc(F)c2c(c1)N(C)C(=O)C21CCN(c2nc3c(c(=O)[nH]2)CCCN3C)CC1
Resp: < 20 nM

---

What pIC50 was measured for each of the following?
# testedTarget: tankyrase 2 (TNKS 2) (Homo sapiens, UniProt Q9H2K2)
# Construct: 613-1, 116aa; made in house; host or cells: cell-free protein synthesis system
# procedureText: Tankyrase inhibitory activity test (ELISA, self-polyADP ribosylation), tankyrase 2
# Type: biochemical
# runConditions: tankyrase 2, ELISA, self-polyADP ribosylation; read-out: TNKS2 inhibitory activity (IC50 class)
pIC50: −log10 of the molar value.

Req: Give me measured pIC50, please, for this compound: O=c1[nH]c(N2CCC3(CC2)CN(Cc2cncnc2)c2cc(F)cc(F)c23)nc2c1CCCC2
Resp: > 7.70

Req: Give me measured pIC50, please, for this compound: CN1CCCc2c1nc(N1CCC3(CC1)C(=O)N(C)c1cc(OCC4COC4)cc(F)c13)[nH]c2=O
Resp: > 7.70

Req: Give me measured pIC50, please, for this compound: CCOC(=O)c1coc(-c2cc(Cl)c3c(c2)N(C)C(=O)C32CCN(c3nc4c(c(=O)[nH]3)CCCN4C)CC2)n1
Resp: > 7.70

Req: Give me measured pIC50, please, for this compound: O=C1N(Cc2cccnc2)c2cccc(Cl)c2C12CCN(c1nc3c(c(=O)[nH]1)CCCC3)CC2
Resp: > 7.70

Req: Give me measured pIC50, please, for this compound: CN1CCCc2c1nc(N1CCC3(CC1)C(=O)N(C)c1cc(OCCCN4CCCC4)cc(F)c13)[nH]c2=O
Resp: > 7.70

Req: Give me measured pIC50, please, for this compound: CN(C)CCOc1cc(Cl)c2c(c1)N(C)C(=O)C21CCN(c2nc3c(c(=O)[nH]2)CCCN3C)CC1
Resp: > 7.70

Req: Give me measured pIC50, please, for this compound: CN(C)C(=O)COc1cc(F)c2c(c1)C(=O)OC21CCN(c2nc3c(c(=O)[nH]2)CCCN3C)CC1
Resp: > 7.70

Req: Give me measured pIC50, please, for this compound: CN1CCCc2c1nc(N1CCC3(CC1)CN(Cc1cccnc1)c1cc(F)cc(F)c13)[nH]c2=O
Resp: > 7.70

Req: Give me measured pIC50, please, for this compound: [2H]C([2H])([2H])N1CCCc2c1nc(N1CCC3(CC1)C(=O)N(CCO)c1cc(F)cc(F)c13)[nH]c2=O
Resp: > 7.70

Req: Give me measured pIC50, please, for this compound: CN1CCCc2c1nc(N1CCC3(CC1)C(=O)N(C)c1cc(OC4CCOCC4)cc(F)c13)[nH]c2=O
Resp: > 7.70

Req: Give me measured pIC50, please, for this compound: CN1CCN(CCOc2cc(F)c3c(c2)N(C)C(=O)C32CCN(c3nc4c(c(=O)[nH]3)CCCN4C)CC2)CC1
Resp: > 7.70

Req: Give me measured pIC50, please, for this compound: CN1CCC(Oc2cc(F)c3c(c2)N(C)C(=O)C32CCN(c3nc4c(c(=O)[nH]3)CCCN4C)CC2)CC1
Resp: > 7.70

Req: Give me measured pIC50, please, for this compound: CN1CCCc2c1nc(N1CCC3(CC1)C(=O)N(C)c1cc(F)cc(F)c13)[nH]c2=O
Resp: > 7.70

Req: Give me measured pIC50, please, for this compound: CN(C)CCOc1cc(F)c2c(c1)C(=O)OC21CCN(c2nc3c(c(=O)[nH]2)CCCN3C)CC1
Resp: > 7.70

Req: Give me measured pIC50, please, for this compound: COc1ccc2c(c1)C1(CCN(c3nc4c(c(=O)[nH]3)CCCC4)CC1)CN2C
Resp: > 7.70
